Entries and their measured half-life follow.
- test-protocol: Chemical stability in pH 7.4 potassium phosphate buffer assessed as half life for compound hydrolysis at 37 degC by UPLC and mass spectrometry
- Assay type: physicochemical

Example cases with answers are listed next.
compound="CC(C)(O/N=C(\\C(=O)N[C@@H]1C(=O)N(S(=O)(=O)O)[C@@H]1CN1CCCCC1=O)c1csc(N)n1)C(=O)O (stereo in doubt)" data_value="214 h"
compound="CC(C)(O/N=C(\\C(=O)N[C@@H]1C(=O)N(S(=O)(=O)O)[C@@H]1CN1C[C@@H](CNC(=N)N)OC1=O)c1csc(N)n1)C(=O)O (stereo in doubt)" data_value="> 37 h"

Moving on to the next compound.
What half-life value was documented for this compound, CC(C)(O/N=C(\C(=O)N[C@@H]1C(=O)N(S(=O)(=O)O)[C@@H]1Cn1cc(CCN)nn1)c1csc(N)n1)C(=O)O (stereo in doubt) ? > 37 h

---

- test-protocol: AUC in rat at 10 mg/kg, iv
- Format: ADME, organism-based
- measurement-conditions: in vivo
reported-metric: AUC (ng·h/mL)
Unit ng·h/mL implied. Number only.

Requested read-out: AUC. Entry: Nc1nc(/C(=N/OC2(C(=O)O)CC2)C(=O)N[C@@H]2C(=O)N(S(=O)(=O)O)[C@@H]2CN2CCOC2=O)cs1 (stereo in doubt) 19000

Query: AUC; subject: `C[C@H]1[C@H](NC(=O)/C(=N\OC(C)(C)C(=O)O)c2csc(N)n2)C(=O)N1S(=O)(=O)O` 13000

---

Recorded MIC by entry
- Test system: Escherichia coli
- test-protocol: microbe, parasite or virus in culture
- Description: Antimicrobial activity against Escherichia coli expressing beta-lactamase Oxa-40 by CLSI broth microdilution method
Your answer should be a plain number; it is taken to be in µg/mL.

compound=C[C@@H](O)[C@H]1C(=O)N2C(C(=O)O)=C(S[C@@H]3CN[C@H](C(=O)N(C)C)C3)[C@H](C)[C@H]12 system="Escherichia coli" reported_metric=MIC data_value=1
compound="N=C(N)NCc1cnn(C[C@@H]2[C@H](NC(=O)/C(=N\\OC3(C(=O)O)CC3)c3csc(N)n3)C(=O)N2S(=O)(=O)O)n1 (stereo in doubt)" system="Escherichia coli" reported_metric=MIC data_value=0.125
compound="N=C(NC1CCNCC1)c1ccc(OC[C@H](O/N=C(\\C(=O)N[C@@H]2C(=O)N(S(=O)(=O)O)[C@@H]2Cn2cncn2)c2csc(N)n2)C(=O)O)cc1 (stereo in doubt)" system="Escherichia coli" reported_metric=MIC data_value=0.25
compound="C[C@@H](O)[C@H]1C(=O)N2C(C(=O)O)=C(SCCNC=N)C[C@H]12 [IMIPENEM ANHYDROUS]" system="Escherichia coli" reported_metric=MIC data_value=1
compound="N=C(N)NCc1cn(C[C@@H]2[C@H](NC(=O)/C(=N\\OC3(C(=O)O)CC3)c3csc(N)n3)C(=O)N2S(=O)(=O)O)nn1 (stereo in doubt)" system="Escherichia coli" reported_metric=MIC data_value=0.125

# query: MIC of entry Nc1nc(/C(=N/OC2(C(=O)O)CC2)C(=O)N[C@@H]2C(=O)N(S(=O)(=O)O)[C@@H]2CN2CCOC2=O)cs1 (stereo in doubt) 0.125

Request the reported MIC associated with `NC(=O)OC[C@@H]1[C@H](NC(=O)/C(=N\OCC(=O)O)c2csc(N)n2)C(=O)N1S(=O)(=O)O` 0.125

Entry under review: `CC(C)(O/N=C(\C(=O)N[C@@H]1C(=O)N2C(C(=O)[O-])=C(C[n+]3ccccc3)CS[C@H]12)c1csc(N)n1)C(=O)O` . Reported MIC? 0.125

# query: MIC of entry NC[C@@H]1CN(C[C@@H]2[C@H](NC(=O)/C(=N\OC3(C(=O)O)CC3)c3csc(N)n3)C(=O)N2S(=O)(=O)O)C(=O)O1 (stereo in doubt) 0.125

The measured values listed here are drawn from ChEMBL document CHEMBL4184210.
